Reference source for all entries: the EternaBench riboswitch data

tested on: MS2 coat protein; experiment: apparent Kd, MS2 coat protein; higher = weaker binding; RNA-MaP array; details: designed as: ON switch for flavin mononucleotide; no ligand
Binary classification by apparent Kd, with 30 nM as an inclusive lower bound for Y; all other cases are N.

Below, 4 sequences whose answers are already recorded.
> print(dat)
                              item.sequence         tested.on  label.class
1  UCUGUGAUCAACAUGAGGAUCACCCAUGUUACCACCUCUAGGCAGGAUAUGAGCGUACUAAGAAGUCAGAAGGGCCUUUUUACG  MS2 coat protein            N
2  GCCAUAAUCUGAGGAUAUAGAGAGAUAAGGAAGCACAUGAGGAUCACCCAUGUCCGUGGUAUAGGCAAGAAGGCAGCUGGAAUC  MS2 coat protein            N
3  AUUCAUUGAAACAUGAGGAUCACCCAUGUACACUGGCACUUACAGGAUAUUGAAUAUGGAAGUCGCAAGAAGGGUAACGUGAUC  MS2 coat protein            Y
4  CUUUAACAUGAGGAUCACCCAUGUCCGAUGAAUUUAGGAUAUCGCAUUGGUCGUAUGAGGCGAGAAGGAAAUUGUC  MS2 coat protein            N

q: Is reported apparent Kd greater than or equal to 30 nM here: CCGCAUAUGUGCCCAAUAUAACAUGAGGAUCACCCAUGUGGUAGAAGGAAUGCUCACGGCUCUCAUUAGGAUAUACCAGACUAU
a: N

q: Given the entry CAAACCAACUAGUAAAACAACAUGAGGAUCACCCAUGUAAGAGAGGAUAUUGAAAUCGAAAGCAACAAGAAGGCUCACCAUGUA , answer whether its apparent Kd meets or surpasses 30 nM.
a: N

q: I'd appreciate it if you could say whether AUUACAAGCACAGGAUAUAACAGUUGGUUCACAUGAGGAUCACCCAUGUAGCAUUGGGAAGUAGCUUAGAAGGGUGAGGUGGUU has apparent Kd at least equal to 30 nM.
a: Y
